Values were extracted from ChEMBL document CHEMBL1137484.

tgt: Delta-type opioid receptor (Mus musculus)
assayRemarks: Agonist activity at delta opioid receptor in mouse vas deferens assessed as inhibition of electrically-stimulated muscle contraction at 10 uM
Assay type: functional, tissue-based
measuredParameter: inhibition

Requested field: inhibition. Item: Cc1cc(O)cc(C)c1C[C@H](N)C(=O)NCCCCc1[nH]c(=O)c(C)nc1C
0%

Again, but for Cc1cc(O)cc(C)c1C[C@H](N)C(=O)NCCCCc1nc(C)c(Cc2ccccc2)[nH]c1=O
19.9%

Again, but for Cc1cccc(C)c1Cc1[nH]c(=O)c(CCCCNC(=O)[C@@H](N)Cc2c(C)cc(O)cc2C)nc1C
6.4%

Again, but for Cc1cc(O)cc(C)c1C[C@H](N)C(=O)NCCCCc1[nH]c(=O)cnc1C
28.1%

Again, but for Cc1cc(O)cc(C)c1C[C@H](N)C(=O)NCCCc1nc(C)c(CCc2ccccc2)[nH]c1=O
4.1%

Again, but for Cc1cc(O)cc(C)c1C[C@H](N)C(=O)NCCCc1nc(C)c(Cc2ccccc2)[nH]c1=O
34.6%

Again, but for Cc1cc(O)cc(C)c1C[C@H](N)C(=O)NCCCCc1nc(C)c(CCc2ccccc2)[nH]c1=O
12.8%

----------
log10(Ki), Mu-type opioid receptor (Homo sapiens, UniProt P35372), per-entry values.
// units: nM (pre-log); metric: Ki; scale: log10

Requested field: log10(Ki). Item: Cc1cc(O)cc(C)c1C[C@H](N)C(=O)NCCCCc1[nH]c(=O)cnc1C
1.76

Again, but for Cc1cccc(C)c1Cc1[nH]c(=O)c(CCCCNC(=O)[C@@H](N)Cc2c(C)cc(O)cc2C)nc1C
-0.18

Again, but for Cc1cc(O)cc(C)c1C[C@H](N)C(=O)NCCCc1nc(C)c(C)[nH]c1=O
0.95

Again, but for Cc1cc(O)cc(C)c1C[C@H](N)C(=O)NCCCCc1nc(C)c(CCc2ccccc2)[nH]c1=O
-0.90

Again, but for Cc1cc(O)cc(C)c1C[C@H](N)C(=O)NCCc1nc(C)c(C)[nH]c1=O
1.88

Again, but for Cc1cc(O)cc(C)c1C[C@H](N)C(=O)NCCCc1nc(C)c(Cc2ccccc2)[nH]c1=O
0.00

Again, but for Cc1cc(O)cc(C)c1C[C@H](N)C(=O)NCCCCc1nc(C)c(Cc2ccccc2)[nH]c1=O
-0.38

Again, but for Cc1cc(O)cc(C)c1C[C@H](N)C(=O)NCc1nc(C)c(C)[nH]c1=O
2.11

Again, but for Cc1cc(O)cc(C)c1C[C@H](N)C(=O)NCCCCc1nc(C)c(C)[nH]c1=O
0.63

Again, but for Cc1c[nH]c(=O)c(CCCCNC(=O)[C@@H](N)Cc2c(C)cc(O)cc2C)n1
-0.21

Again, but for Cc1cc(O)cc(C)c1C[C@H](N)C(=O)NCCCc1nc(C)c(CCc2ccccc2)[nH]c1=O
-0.26

Again, but for Cc1cc(O)cc(C)c1C[C@H](N)C(=O)NCCCCc1[nH]c(=O)c(C)nc1C
1.19

----------
Exercise: for every item that follows, state its recorded Ratio Ki.
Species: Homo sapiens
assayRemarks: Selectivity for human mu opioid receptor over human delta opioid receptor
Respond with the number and no other words.

Requested field: Ratio Ki. Item: Cc1cc(O)cc(C)c1C[C@H](N)C(=O)NCCCCc1[nH]c(=O)cnc1C
6

Again, but for Cc1cccc(C)c1Cc1[nH]c(=O)c(CCCCNC(=O)[C@@H](N)Cc2c(C)cc(O)cc2C)nc1C
8

Again, but for Cc1cc(O)cc(C)c1C[C@H](N)C(=O)NCCCCc1nc(C)c(CCc2ccccc2)[nH]c1=O
447

Again, but for Cc1cc(O)cc(C)c1C[C@H](N)C(=O)NCCCc1nc(C)c(C)[nH]c1=O
30

Again, but for Cc1cc(O)cc(C)c1C[C@H](N)C(=O)NCCCc1nc(C)c(Cc2ccccc2)[nH]c1=O
60
